Test system: ACHN renal
Assay: NCI tumour cell line growth inhibition, 48 h
Quick rule for you: TGI at 30 µM or higher means Met, lower means Not met.

- CCN(CC)CCCCC1CCN(CC(=O)N2c3cc(Cl)ccc3NC(=O)CC2C)CC1 (configuration not stated): Met
- NC(CC(=O)O)(Cc1ccccc1)C(=O)O (configuration not stated): Met
- Nc1ccccc1C#Cc1ccccc1C#Cc1cnccn1: Met
- COc1ccc(C(c2cc3c(cc2O)OCO3)N2CCOCC2)cc1OC (configuration not stated): Not met
- CC/C(SC)=[N+](\C)[O-]: Met
- CCN(CC)C(=S)SS(=O)(=O)c1ccc(NC(C)=O)cc1: Met
- COc1ccccc1NC(=O)C(CC(C(=O)Nc1ccccc1OC)/C(C)=N/NC(=O)c1ccccc1O)/C(C)=N/NC(=O)c1ccccc1O (configuration not stated): Met
- Cn1c(=O)c2c(nc(NCCNc3nc4c(c(=O)n(C)c(=O)n4C)n3C)n2C)n(C)c1=O: Met
- Nc1nc(-c2ccccc2)cc(-c2ccc(Cl)cc2)c1-c1nc2ccccc2o1: Not met
- O=C(CC(=O)N1N=C(N(c2ccccc2)c2ccccc2)CC1c1ccccc1)Nc1ccccc1 (configuration not stated): Met
- CC(C)C1COC(c2ccc3ccccc3c2-c2c(O[Si](C)(C)C(C)(C)C)ccc3ccccc23)=N1 (configuration not stated): Met
- Cc1c(-c2nnc(-c3cc(Cl)c(Cl)cc3Cl)o2)nnn1-c1ccnc2c(C(F)(F)F)cccc12: Met
- Nc1ccc(-c2ccc(-c3nc4cc(Cl)c(Cl)cc4[nH]3)cc2)cc1: Met
- O=C(NNC(=O)c1nsc2ccccc12)c1ccc(Cl)cc1: Met
- CCOC(=O)c1cc(OC(=O)CC)c2c(OC)ccc(OC)c2c1: Met
- CCOC(=O)c1cc(C#N)[nH]c1-c1ccsc1: Met
- Cn1sc2ccccc2c1=S: Not met
- c1ccc2c3c(ccc2c1)-c1c(ccc2c(NCCCCN4CCCCC4)cccc12)C3: Not met
- O=c1/c(=C/c2ccc([N+](=O)[O-])o2)sc2n1[C@@H](c1ccc3c(c1)OCO3)C=C(c1cc(F)c(Cl)cc1Cl)N=2: Met
- COc1cc2c(cc1OCCCN1CCN(c3ncnc4ccccc34)CC1)N=CC1CCCN1C2=O (configuration not stated): Not met
- Cc1ccc(/C=N/NS(=O)(=O)c2ccc(/C=C3\NC(=O)NC3=O)cc2)cc1: Met

---

System: KM12 colon
Test: NCI tumour cell line growth inhibition, 48 h; in the data active = GI50 below about 0.43 µM; inactive = the rest
Outcomes: 1 = active, -1 = inactive

* Nc1ccc(-c2ccc(-c3nc4cc(Cl)c(Cl)cc4[nH]3)cc2)cc1 | -1
* O=C(NCCCCCCNC(=O)OCc1ccc2c(Cl)cc(Cl)c(O)c2n1)OCc1ccc2c(Cl)cc(Cl)c(O)c2n1 | -1
* CCN(CC)CC[n+]1cc2cc(OC)c(OC)cc2c2ccc3cc4c(cc3c21)OCO4 | -1
* COc1cnc2c(c1)C(=O)c1c-2n(CCCNC(C)C)c(=O)c2cc([N+](=O)[O-])ccc12 | 1
* Cc1cc2nc(C(Cl)Cl)nc(-c3ccccc3)n2n1 | -1
* CCOCCOC[C@H]1CCCN(c2ccnc3sc(C(N)=O)c(N)c23)C1 | -1
* Fc1ccc(-c2nc(Nc3ccc(-c4nc5ccccc5[nH]4)cc3)nc(N3CCOCC3)n2)cc1 | 1
* COc1cc(C)c(NC(=O)CN(C)C)cc1Nc1nc(Nc2cccc(F)c2C(N)=O)c2cc[nH]c2n1 | -1
* O=[N+]([O-])c1cc2c(c([N+](=O)[O-])c1)Nc1ccccc1O2 | -1
* CC[CH2][Sn]([CH2]CC)([O]C(=O)Cc1ccc(F)cc1)[O][Sn]([CH2]CC)([CH2]CC)[O]C(=O)Cc1ccc(F)cc1 | -1
* CC#CC(=O)N1CC[C@@H](n2c(=O)n(-c3ccc(Oc4ccccc4)cc3)c3c(N)ncnc32)C1 | -1
* Oc1c(CN2CCN(c3ccccc3F)CC2)cc(Br)c2cccnc12 | -1

All figures here come from PubChem BioAssay (NCI).
